Values from patent US20140271831A1

Experiment Description: Racecadotril and degradation products over time in Acetate and Citrate at pH 3.6, 4.0, 4.5 (untitled table)
Format: physicochemical
Applied Conditions: Acetate, pH 4.5, 1 week
Measured Quantity: Thiorphan (%)

INSERT INTO results (compound, recorded_measurement) VALUES
  ('CC(=O)SCC(Cc1ccccc1)C(=O)NCC(=O)OCc1ccccc1 (racemic)', 0.02);

###

Experiment Description: Racecadotril and degradation products over time in Acetate and Citrate at pH 3.6, 4.0, 4.5 (untitled table)
Assay type: physicochemical
Applied Conditions: Acetate, pH 4.0, 8 week
Measured Quantity: Benz Alcohol

INSERT INTO assay_data (compound, measured_quantity, recorded_measurement) VALUES
  ('CC(=O)SCC(Cc1ccccc1)C(=O)NCC(=O)OCc1ccccc1 (racemic)', 'Benz Alcohol', '5.37%');

###

Experiment Description: Racecadotril and degradation products over time in Acetate and Citrate at pH 3.6, 4.0, 4.5 (untitled table)
Format: physicochemical
Applied Conditions: Acetate, pH 4.0, 4 week
Measured Quantity: Thiorphan (%)

INSERT INTO measurements (compound, measured_quantity, recorded_measurement) VALUES
  ('CC(=O)SCC(Cc1ccccc1)C(=O)NCC(=O)OCc1ccccc1 (racemic)', 'Thiorphan', 0.38);

###

Experiment Description: Racecadotril and degradation products over time in Acetate and Citrate at pH 3.6, 4.0, 4.5 (untitled table)
Assay type: physicochemical
Applied Conditions: Citrate, pH 4.5, 2 week
Measured Quantity: Thiorphan (%)

INSERT INTO results (molecule, measured_quantity, unit_name, recorded_measurement) VALUES
  ('CC(=O)SCC(Cc1ccccc1)C(=O)NCC(=O)OCc1ccccc1 (racemic)', 'Thiorphan', '%', 0.03);

###

Experiment Description: Racecadotril and degradation products over time in Acetate and Citrate at pH 3.6, 4.0, 4.5 (untitled table)
Format: physicochemical
Applied Conditions: Citrate, pH 4.0, 1 week
Experimental: • 1. Pipet 1 mL of Racecadotril solution into a 100 mL volumetric flask (V.F.) • 2. Dilute to volume with the same buffer used in the solution preparation. • 3. […] Parameters may be modified to optimize chromatography. • The assay of Racecadotril is determined by using the external standard injected. The degradation products levels are determined by % peak area relative to the Racecadotril peak. [table] […]
Measured Quantity: Thiorphan (%)

INSERT INTO results (compound, unit_name, recorded_measurement) VALUES
  ('CC(=O)SCC(Cc1ccccc1)C(=O)NCC(=O)OCc1ccccc1 (racemic) [Racecadotril]', '%', 0);

###

Experiment Description: Racecadotril and degradation products over time in Acetate and Citrate at pH 3.6, 4.0, 4.5 (untitled table)
Format: physicochemical
Applied Conditions: Citrate, pH 3.6, 8 week
Measured Quantity: Benz Alcohol (%)

INSERT INTO results (compound, unit_name, recorded_measurement) VALUES
  ('CC(=O)SCC(Cc1ccccc1)C(=O)NCC(=O)OCc1ccccc1 (racemic)', '%', 6.64);

###

Experiment Description: Racecadotril and degradation products over time in Acetate and Citrate at pH 3.6, 4.0, 4.5 (untitled table)
Format: physicochemical
Applied Conditions: Acetate, pH 4.0, 6 week
Description: • 1. Pipet 1 mL of Racecadotril solution into a 100 mL volumetric flask (V.F.) • 2. Dilute to volume with the same buffer used in the solution preparation. • 3. […] Parameters may be modified to optimize chromatography. • The assay of Racecadotril is determined by using the external standard injected. The degradation products levels are determined by % peak area relative to the Racecadotril peak. [table] […]
Measured Quantity: Thiorphan (%)

INSERT INTO assay_data (molecule, unit_name, recorded_measurement) VALUES
  ('CC(=O)SCC(Cc1ccccc1)C(=O)NCC(=O)OCc1ccccc1 (racemic)', '%', 0.71);

###

Experiment Description: Racecadotril and degradation products over time in Acetate and Citrate at pH 3.6, 4.0, 4.5 (untitled table)
Type: physicochemical
Applied Conditions: Citrate, pH 4.0, 2 week
Measured Quantity: Thiorphan (%)

INSERT INTO assay_data (compound, recorded_measurement) VALUES
  ('CC(=O)SCC(Cc1ccccc1)C(=O)NCC(=O)OCc1ccccc1 (racemic)', 0.11);

###

Experiment Description: Racecadotril and degradation products over time in Acetate and Citrate at pH 3.6, 4.0, 4.5 (untitled table)
Format: physicochemical
Applied Conditions: Citrate, pH 4.0, 3 week
Measured Quantity: Benz Alcohol (%)

INSERT INTO assay_data (molecule, recorded_measurement) VALUES
  ('CC(=O)SCC(Cc1ccccc1)C(=O)NCC(=O)OCc1ccccc1 (racemic) [Racecadotril]', 2.36);

###

Experiment Description: Racecadotril and degradation products over time in Acetate and Citrate at pH 3.6, 4.0, 4.5 (untitled table)
Format: physicochemical
Applied Conditions: Citrate, pH 3.6, 4 week
Measured Quantity: Thiorphan

INSERT INTO results (compound, recorded_measurement) VALUES
  ('CC(=O)SCC(Cc1ccccc1)C(=O)NCC(=O)OCc1ccccc1 (racemic)', '0.47%');
